# ASSAY: Retention time of compound by RP-HPLC analysis
# Assay type: physicochemical
PROPERTY_NAME: Retention_time
Numeric answer plus unit only.

Use these answered entries as a reference point.
COc1cccc(COc2ccc([C@@H](NC(=O)[C@H](CCCCN)NC(=O)[C@H](CCCNC(=N)N)NC(=O)c3ccc(-c4cccs4)s3)C(N)=O)cc2)c1 ... 3.28 min
N=C(N)NCCC[C@H](NC(=O)c1cc2ccccc2s1)C(=O)N[C@@H](CCCCN)C(=O)N[C@@H](C(N)=O)c1ccc(OCc2ccccc2)cc1 ... 3.13 min

// next entry
Asked: Which Retention_time is listed for `COc1cccc(COc2ccc([C@@H](NC(=O)[C@H](CCCCN)NC(=O)[C@H](CCCNC(=N)N)NC(=O)c3cccs3)C(N)=O)cc2)c1` ?
Given back: 2.71 min
